- Tested on: Escherichia coli ATCC 11775
Entries and their MIC values follow.
Give the value, in units of µM, as a plain number.

# molecule, numeric_value
records = [
    ("CC[C@H](C)[C@@H]1NC(=O)[C@H](CC(C)C)NC(=O)[C@@H](NC(=O)[C@H](Cc2ccccc2)NC(=O)[C@H](CC(C)C)NC(=O)[C@H](CCCCN)NC(=O)[C@@H]2CCCN2C(=O)[C@H](CC(C)C)NC(=O)[C@H](C)NC(=O)[C@H](C)NC(=O)[C@H](CC(C)C)NC(=O)[C@H](C)NC(=O)[C@H](CC(C)C)NC(=O)[C@H](CO)NC(=O)[C@H](CC(C)C)NC(=O)[C@@H](N)CC(C)C)CSSC[C@@H](C(=O)O)NC(=O)[C@H](CCCCN)NC(=O)[C@H](CCCCN)NC(=O)[C@H](Cc2ccccc2)NC1=O [LLSLALAALPKLFCLIFKKC]", 25),
]

Continue with the molecule presented below.
Q) Please respond with reported MIC (system Escherichia coli ATCC 11775) for NCCCC[C@H](NC(=O)[C@H](Cc1c[nH]c2ccccc12)NC(=O)[C@H](CCC(N)=O)NC(=O)[C@H](Cc1c[nH]c2ccccc12)NC(=O)[C@H](CCCCN)NC(=O)[C@@H](N)CCCCN)C(=O)O [KKWQWK] .
A) 23

----------
Entries and their MIC values follow.
- System: Pseudomonas aeruginosa PAO1
- protocol: ≥ marks a high value that may be exact or a test limit, other limits are often not marked, values filed in µg/mL are converted to µM
Give the value, in units of µM, as a plain number.

# chemical_structure, MIC, µM
records = [
    ("CSCC[C@H](NC(=O)[C@@H](N)[C@@H](C)O)C(=O)N[C@@H](CO)C(=O)N[C@@H](CC(C)C)C(=O)N[C@@H](CCCN=C(N)N)C(=O)N[C@@H](Cc1ccccc1)C(=O)N[C@@H](Cc1c[nH]c2ccccc12)C(=O)N[C@@H](CCCN=C(N)N)C(=O)N[C@@H](Cc1c[nH]c2ccccc12)C(=O)N[C@@H](CCCCN)C(=O)N[C@H](C(=O)N[C@@H](CCCN=C(N)N)C(=O)O)C(C)C", 38.4),
]

Q) State its MIC: "NC(N)=NCCC[C@H](NC(=O)[C@H](CCCN=C(N)N)NC(=O)[C@H](CCCN=C(N)N)NC(=O)[C@@H](N)CCCN=C(N)N)C(=O)N[C@@H](Cc1c[nH]c2ccccc12)C(=O)N[C@@H](Cc1c[nH]c2ccccc12)C(=O)N[C@@H](Cc1c[nH]c2ccccc12)C(=O)N[C@@H](Cc1c[nH]c2ccccc12)C(=O)O"
A) 15.6

----------
Please consider the recorded MIC for Micrococcus luteus ATCC 4698 in what follows.
Give the value, in units of µM, as a plain number.

# molecule, MIC [µM]
rows = [
    ("CC[C@H](C)[C@H](NC(=O)[C@H](CC(C)C)NC(=O)[C@@H](N)Cc1ccccc1)C(=O)NCC(=O)N[C@@H](CCSC)C(=O)N[C@H](C(=O)N[C@@H](Cc1cnc[nH]1)C(=O)NCC(=O)N[C@@H](CC(C)C)C(=O)N[C@H](C(=O)N[C@H]1CSSC[C@@H](C(=O)O)NC(=O)[C@H](CCCCN)NC(=O)[C@H](CCCN=C(N)N)NC(=O)[C@H](CO)NC(=O)[C@H]([C@@H](C)CC)NC(=O)[C@H](CC(C)C)NC1=O)[C@@H](C)CC)[C@@H](C)O [FLIGMTHGLICLISRKC]", 6.56),
]

Q) Please respond with reported MIC (system Micrococcus luteus ATCC 4698) for CC[C@H](C)[C@H](N)C(=O)N[C@@H](CC(N)=O)C(=O)N[C@@H](Cc1c[nH]c2ccccc12)C(=O)N[C@@H](CCCCN)C(=O)N[C@@H](CCCCN)C(=O)N[C@H](C(=O)N[C@@H](CCCCN)C(=O)N[C@@H](CCCCN)C(=O)N[C@@H](CCCCN)C(=O)N[C@H](C(=O)N[C@@H](CCCCN)C(=O)NCC(=O)N[C@@H](CCSC)C(=O)N[C@@H](CC(C)C)C(N)=O)C(C)C)[C@@H](C)CC [INWKKIKKKVKGML] .
A) 0.583

Q) Please respond with reported MIC (system Micrococcus luteus ATCC 4698) for CC(C)C[C@H](NC(=O)[C@H](CC(C)C)NC(=O)[C@H](CCCCN)NC(=O)[C@H](CO)NC(=O)[C@H](CC(C)C)NC(=O)[C@H](C)NC(=O)[C@H](CCCCN)NC(=O)[C@H](Cc1ccccc1)NC(=O)[C@H](CC(C)C)NC(=O)[C@H](C)NC(=O)CNC(=O)[C@@H](NC(=O)[C@@H](N)Cc1ccccc1)C(C)C)C(=O)O [FVGALFKALSKLL] .
A) 4.27

The measurements presented in this section are drawn from DBAASP.
